# Experimental System: hSSADH (human succinic semialdehyde dehydrogenase) (Homo sapiens)
# Construct: purified recombinant homotetramer, expressed and purified as in Didiasova et al. 2024
# Sequence (P51649 48-535): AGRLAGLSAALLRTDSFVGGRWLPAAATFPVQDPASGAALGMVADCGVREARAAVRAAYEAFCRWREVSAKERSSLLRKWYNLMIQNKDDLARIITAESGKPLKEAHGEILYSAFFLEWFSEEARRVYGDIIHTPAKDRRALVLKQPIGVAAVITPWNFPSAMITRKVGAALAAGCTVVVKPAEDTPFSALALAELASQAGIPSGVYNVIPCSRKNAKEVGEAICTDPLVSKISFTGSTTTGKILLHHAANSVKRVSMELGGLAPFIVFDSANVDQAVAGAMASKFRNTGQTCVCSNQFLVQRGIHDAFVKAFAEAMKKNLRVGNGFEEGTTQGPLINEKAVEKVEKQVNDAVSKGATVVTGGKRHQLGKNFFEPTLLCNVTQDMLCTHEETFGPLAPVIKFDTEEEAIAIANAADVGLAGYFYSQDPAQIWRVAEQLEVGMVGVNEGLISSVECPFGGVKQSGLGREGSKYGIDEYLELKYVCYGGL
# Protocol Description: product inhibition, NADH […], replots of slopes and intercepts
Reported Property: pKi
The scale used: pKi is minus the common logarithm of the concentration in molar units.

Data request: Can you share its pKi? I mean this molecule: NC(=O)C1=CN([C@@H]2O[C@H](COP(=O)(O)OP(=O)(O)OC[C@H]3O[C@@H](n4cnc5c(N)ncnc54)[C@H](O)[C@@H]3O)[C@@H](O)[C@H]2O)C=CC1
Data returned: 4.82
